System: M14 melanoma
Test: NCI tumour cell line growth inhibition, 48 h
Property label: GI50

Below, each entry is followed by its recorded GI50 result.
[[record]]
compound = "CCC(=O)[C@H](C)[C@@H](OC(=O)[C@H](C)CC)[C@H](C)[C@H]1OC(CC)=C(C)C(=O)[C@@H]1C"
property_label = "GI50"
observed = "22.8 µM"

[[record]]
compound = "Cc1ccc2c(C)c3c(ccc4ccccc43)c[n+]2c1"
property_label = "GI50"
observed = "14.1 µM"


Which value of GI50 has been reported for CC(=O)[CH-]C(=O)c1ccccc1.CC(=O)[CH-]C(=O)c1ccccc1.CN(C)c1ccc([O-])cc1.CN(C)c1ccc([O-])cc1.Cl.[Ti+4] in the records?
17.5 µM

Which value of GI50 has been reported for Fc1[nH]nc2ccc([C@@H]3Nc4ccc5[nH]ncc5c4[C@H]4C5CCC(C5)[C@@H]34)cc12 (some centres undefined) in the records?
0.514 µM
